From: patent US20220259298A1

Consider the following binders and their measured Kd readings.
# TARGET_SYSTEM: T1, N-terminal PA-tagged mouse USAG-1 (WISE) recombinant protein (mouse, UniProt Q9CQN4 24-206)
# T1 construct: The pull-downs used culture supernatant of Expi293F cells; also called PA-mUSAG-1 (WISE); purified full-length recombinant mouse USAG-1; not shown: PA tag at the N-terminal
# T1 sequence (looked up): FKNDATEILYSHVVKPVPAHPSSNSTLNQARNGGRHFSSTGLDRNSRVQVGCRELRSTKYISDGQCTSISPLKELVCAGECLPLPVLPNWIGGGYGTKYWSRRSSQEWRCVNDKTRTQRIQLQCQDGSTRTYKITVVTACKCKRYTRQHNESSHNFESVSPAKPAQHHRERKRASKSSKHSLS
# METHOD_DESCRIPTION: BLI (Octet), antibody immobilized on the biosensor, mouse USAG-1 at 10, 30, 100 nM, global fitting
Give the value, in units of nM, as a plain number.

mouse anti-USAG-1 neutralizing antibody B (E57) (antibody, mouse IgG1, kappa, V domains shown) VH: EVQLQQSGPELVKPGASVKISCKTSGYSFTGYYMSWVKQSPEKSLEWIGEINPTTGGSTYNQKFKAKATLTVDKSSSTAYMQLKSLTSEDSAVYYCAREGYYSGISYDAMDYWGQGTSVTVSS VL: DIQMTQTTSSLSASLGDRVTISCRASQDISNYLSWYQQKPDGTVKLLIYYTSRLHSGVPSRFSGSGSGTDYSLTISNLEQEDIATYFCQQGNTLPRTFGGGTKLEIKR; 2.44
mouse anti-USAG-1 neutralizing antibody A (E37) (antibody, mouse IgG1, kappa, V domains shown) VH: QVQLQQSDAELVNPGASVKISCKVSGYTFTDHTIHWMKQRPEQGLEWIGYIYPGDGSTKYNEKFKGKATLTADKSSSTAYMQLNSLTSEDSAVYFCARTETYYGRIYYYAMDYWGQGTSVTVSS VL: QIVLSQSPAILSASPGEKVTMTCRASSSVSYMYWYQQKPGSSPKPWIYATSNLASGVPIRFSGSGSGTSYSLTISRVEAEDAATYYCQQWSSNLTFGAGTKLELKR; 2.43
mouse anti-USAG-1 neutralizing antibody E (B103) (antibody, mouse IgG1, kappa, V domains shown, Raised against baculovirus-derived rat USAG-1) VH: DVQLQESGPGLVKPSQSLSLTCSVTGYSITSGYYWNWIRQFPGNKLEWMGCISYDGSNNYNPSLKNRISITRDTSKNQFFLKLNSVTTEDTATYYCARGGLLWGQGTTLTVSS VL: DIQMTQSPSSLSASLGERVSLTCRASQEISGYLSWLQQKPDGNIKRLIYAASTLDSGVPKRFSGSRSGSDYSLTISRLESEDFADYYCLQYASYPWTFGGGTKLEIKR; 4.97

We now examine a further binder.
State the recorded Kd for this entry: mouse anti-USAG-1 neutralizing antibody C (B14) (antibody, V domains shown, Raised against baculovirus-derived rat USAG-1) VH: EVQLQQSGPELVKPGASVKISCKASGYSFTGYYMNWVKQSPEKSLEWIGEINPTTGGTTYNQKFKAKATLTVDKSSSTAYMQLKSLTSEDSAVYYCARLHYDYDGVGYAMDYWGQGTSVTVSS VL: DIVMTQSHKFMSTSVGDRVSITCKASQDVSTAVAWYQQKPGQSPKLLIYSASYRYTGVPARFTGSGSGTDFTFTISSVQAEDLAVYYCQQHYSTPPTFGGGTKLEIKR
4.21
